System: Escherichia coli
Test: Antibacterial activity against Escherichia coli ATCC25922 incubated for 16 to 18 hrs by muller hinton broth based microplate reader analysis
Assay type: functional
Conditions: time 16-18 hrs
assay metric: MIC

Here are 3 molecules together with their reported answers.
molecule	MIC
CCCCCCCCCCCCCCCCCC[N+]1(C)CCN(C(=O)[C@H]2NC(=O)[C@H]3NC(=O)[C@H](NC(=O)[C@@H]4NC(=O)[C@H](CC(N)=O)NC(=O)[C@H](NC(=O)[C@@H](CC(C)C)NC)[C@H](O)c5ccc(c(Cl)c5)Oc5cc4cc(c5O[C@@H]4O[C@H](CO)[C@@H](O)[C@H](O)[C@H]4O[C@H]4C[C@](C)(N)[C@H](O)[C@H](C)O4)Oc4ccc(cc4Cl)[C@H]3O)c3ccc(O)c(c3)-c3c(O)cc(O)cc32)CC1.[Br-] (stereo in doubt)	> 128 µg/mL
CN[C@H](CC(C)C)C(=O)N[C@H]1C(=O)N[C@@H](CC(N)=O)C(=O)N[C@H]2C(=O)N[C@H]3C(=O)N[C@H](C(=O)N[C@H](C(=O)O)c4cc(O)cc(O)c4-c4cc3ccc4O)[C@H](O)c3ccc(c(Cl)c3)Oc3cc2cc(c3O[C@@H]2O[C@H](CO)[C@@H](O)[C@H](O)[C@H]2O[C@H]2C[C@](C)(NC(=O)CCCCCCCCCCC[n+]3ccccc3)[C@H](O)[C@H](C)O2)Oc2ccc(cc2Cl)[C@H]1O.[Br-]	> 128 µg/mL
CCCCCCCCCC[n+]1ccc(C(=O)NCCNC(=O)[C@H]2NC(=O)[C@H]3NC(=O)[C@H](NC(=O)[C@@H]4NC(=O)[C@H](CC(N)=O)NC(=O)[C@H](NC(=O)[C@@H](CC(C)C)NC)[C@H](O)c5ccc(c(Cl)c5)Oc5cc4cc(c5O[C@@H]4O[C@H](CO)[C@@H](O)[C@H](O)[C@H]4O[C@H]4C[C@](C)(N)[C@H](O)[C@H](C)O4)Oc4ccc(cc4Cl)[C@H]3O)c3ccc(O)c(c3)-c3c(O)cc(O)cc32)cc1.[Br-]	> 128 µg/mL

Form: molecule = CCCCCCCCCCCCCC[n+]1ccc(C(=O)NCCNC(=O)[C@H]2NC(=O)[C@H]3NC(=O)[C@H](NC(=O)[C@@H]4NC(=O)[C@H](CC(N)=O)NC(=O)[C@H](NC(=O)[C@@H](CC(C)C)NC)[C@H](O)c5ccc(c(Cl)c5)Oc5cc4cc(c5O[C@@H]4O[C@H](CO)[C@@H](O)[C@H](O)[C@H]4O[C@H]4C[C@](C)(N)[C@H](O)[C@H](C)O4)Oc4ccc(cc4Cl)[C@H]3O)c3ccc(O)c(c3)-c3c(O)cc(O)cc32)cc1.[Br-] (stereo in doubt) ; MIC = > 128 µg/mL

Form: molecule = CCCCCCCCCCCCCC[N+]1(C)CCN(C(=O)[C@H]2NC(=O)[C@H]3NC(=O)[C@H](NC(=O)[C@@H]4NC(=O)[C@H](CC(N)=O)NC(=O)[C@H](NC(=O)[C@@H](CC(C)C)NC)[C@H](O)c5ccc(c(Cl)c5)Oc5cc4cc(c5O[C@@H]4O[C@H](CO)[C@@H](O)[C@H](O)[C@H]4O[C@H]4C[C@](C)(N)[C@H](O)[C@H](C)O4)Oc4ccc(cc4Cl)[C@H]3O)c3ccc(O)c(c3)-c3c(O)cc(O)cc32)CC1.[Br-] (stereo in doubt) ; MIC = 32 µg/mL

Form: molecule = CN[C@H](CC(C)C)C(=O)N[C@H]1C(=O)N[C@@H](CC(N)=O)C(=O)N[C@H]2C(=O)N[C@H]3C(=O)N[C@H](C(=O)N[C@H](C(=O)O)c4cc(O)cc(O)c4-c4cc3ccc4O)[C@H](O)c3ccc(c(Cl)c3)Oc3cc2cc(c3O[C@@H]2O[C@H](CO)[C@@H](O)[C@H](O)[C@H]2O[C@H]2C[C@](C)(N)[C@H](O)[C@H](C)O2)Oc2ccc(cc2Cl)[C@H]1O ; MIC = > 128 µg/mL

Form: molecule = CN[C@H](CC(C)C)C(=O)N[C@H]1C(=O)N[C@@H](CC(N)=O)C(=O)N[C@H]2C(=O)N[C@H]3C(=O)N[C@H](C(=O)N[C@H](C(=O)O)c4cc(O)cc(O)c4-c4cc3ccc4O)[C@H](O)c3ccc(c(Cl)c3)Oc3cc2cc(c3O[C@@H]2O[C@H](CO)[C@@H](O)[C@H](O)[C@H]2O[C@H]2C[C@](C)(NC(=O)CCCCCCCCCCC[n+]3cccc(F)c3)[C@H](O)[C@H](C)O2)Oc2ccc(cc2Cl)[C@H]1O.[Br-] ; MIC = > 128 µg/mL

Form: molecule = CCCCCCCCCCCC[N+]1(C)CCN(C(=O)[C@H]2NC(=O)[C@H]3NC(=O)[C@H](NC(=O)[C@@H]4NC(=O)[C@H](CC(N)=O)NC(=O)[C@H](NC(=O)[C@@H](CC(C)C)NC)[C@H](O)c5ccc(c(Cl)c5)Oc5cc4cc(c5O[C@@H]4O[C@H](CO)[C@@H](O)[C@H](O)[C@H]4O[C@H]4C[C@](C)(N)[C@H](O)[C@H](C)O4)Oc4ccc(cc4Cl)[C@H]3O)c3ccc(O)c(c3)-c3c(O)cc(O)cc32)CC1.[Br-] (stereo in doubt) ; MIC = 16 µg/mL

Form: molecule = CN[C@H](CC(C)C)C(=O)N[C@H]1C(=O)N[C@@H](CC(N)=O)C(=O)N[C@H]2C(=O)N[C@H]3C(=O)N[C@H](C(=O)N[C@H](C(=O)N4CCN(C)CC4)c4cc(O)cc(O)c4-c4cc3ccc4O)[C@H](O)c3ccc(c(Cl)c3)Oc3cc2cc(c3O[C@@H]2O[C@H](CO)[C@@H](O)[C@H](O)[C@H]2O[C@H]2C[C@](C)(N)[C@H](O)[C@H](C)O2)Oc2ccc(cc2Cl)[C@H]1O (stereo in doubt) ; MIC = > 128 µg/mL

====

System: Escherichia coli
Assay: Antibacterial activity against Escherichia coli ATCC25922 incubated for 16 to 18 hrs by muller hinton broth based microplate reader analysis
Type: functional
Conditions: time 16-18 hrs
assay metric: MIC

Form: compound = CCCCCCCCCCCC[n+]1ccc(C(=O)NCCNC(=O)[C@@H]2NC(=O)[C@H]3NC(=O)[C@H](NC(=O)[C@@H]4NC(=O)[C@H](CC(N)=O)NC(=O)[C@H](NC(=O)[C@@H](CC(C)C)NC)[C@H](O)c5ccc(c(Cl)c5)Oc5cc4cc(c5O[C@@H]4O[C@H](CO)[C@@H](O)[C@H](O)[C@H]4O[C@H]4C[C@](C)(N)[C@H](O)[C@H](C)O4)Oc4ccc(cc4Cl)[C@H]3O)c3ccc(O)c(c3)-c3c(O)cc(O)cc32)cc1.[Br-] (stereo in doubt) ; MIC = > 128 µg/mL

====

Reported MIC values for the following compounds.
Tested on: Escherichia coli
Experiment: Antibacterial activity against Escherichia coli ATCC25922 incubated for 16 to 18 hrs by muller hinton broth based microplate reader analysis
Assay type: functional
Conditions: time 16-18 hrs

Here are 2 compounds together with their reported answers.
smiles data	MIC
CN[C@H](CC(C)C)C(=O)N[C@H]1C(=O)N[C@@H](CC(N)=O)C(=O)N[C@H]2C(=O)N[C@H]3C(=O)N[C@H](C(=O)N[C@H](C(=O)O)c4cc(O)cc(O)c4-c4cc3ccc4O)[C@H](O)c3ccc(c(Cl)c3)Oc3cc2cc(c3O[C@@H]2O[C@H](CO)[C@@H](O)[C@H](O)[C@H]2O[C@H]2C[C@](C)(NC(=O)CCCCCCCCCCC[n+]3cccc(NC(=O)OC(C)(C)C)c3)[C@H](O)[C@H](C)O2)Oc2ccc(cc2Cl)[C@H]1O.[Br-]	> 128 µg/mL
CN[C@H](CC(C)C)C(=O)N[C@H]1C(=O)N[C@@H](CC(N)=O)C(=O)N[C@H]2C(=O)N[C@H]3C(=O)N[C@H](C(=O)N[C@H](C(=O)O)c4cc(O)cc(O)c4-c4cc3ccc4O)[C@H](O)c3ccc(c(Cl)c3)Oc3cc2cc(c3O[C@@H]2O[C@H](CO)[C@@H](O)[C@H](O)[C@H]2O[C@H]2C[C@](C)(NC(=O)CCCCCCCCCCC[n+]3ccc(C)cc3)[C@H](O)[C@H](C)O2)Oc2ccc(cc2Cl)[C@H]1O.[Br-]	> 128 µg/mL

Then there is this compound:
Form: compound = CN[C@H](CC(C)C)C(=O)N[C@H]1C(=O)N[C@@H](CC(N)=O)C(=O)N[C@H]2C(=O)N[C@H]3C(=O)N[C@H](C(=O)N[C@H](C(=O)O)c4cc(O)cc(O)c4-c4cc3ccc4O)[C@H](O)c3ccc(c(Cl)c3)Oc3cc2cc(c3O[C@@H]2O[C@H](CO)[C@@H](O)[C@H](O)[C@H]2O[C@H]2C[C@](C)(NC(=O)CCCCCCCCCCC[n+]3ccc(N)cc3)[C@H](O)[C@H](C)O2)Oc2ccc(cc2Cl)[C@H]1O.O=C(O)C(F)(F)F.[Br-] ; MIC = > 128 µg/mL
